Each item that follows carries a reported IC50.
Biological target: EGFR (d746-750) (Homo sapiens, UniProt P00533, DEL746-750)
Construct: purchased SignalChem E10-122JG
Sequence (P00533 with tags, fused parts or gaps DEL746-750 limits assumed): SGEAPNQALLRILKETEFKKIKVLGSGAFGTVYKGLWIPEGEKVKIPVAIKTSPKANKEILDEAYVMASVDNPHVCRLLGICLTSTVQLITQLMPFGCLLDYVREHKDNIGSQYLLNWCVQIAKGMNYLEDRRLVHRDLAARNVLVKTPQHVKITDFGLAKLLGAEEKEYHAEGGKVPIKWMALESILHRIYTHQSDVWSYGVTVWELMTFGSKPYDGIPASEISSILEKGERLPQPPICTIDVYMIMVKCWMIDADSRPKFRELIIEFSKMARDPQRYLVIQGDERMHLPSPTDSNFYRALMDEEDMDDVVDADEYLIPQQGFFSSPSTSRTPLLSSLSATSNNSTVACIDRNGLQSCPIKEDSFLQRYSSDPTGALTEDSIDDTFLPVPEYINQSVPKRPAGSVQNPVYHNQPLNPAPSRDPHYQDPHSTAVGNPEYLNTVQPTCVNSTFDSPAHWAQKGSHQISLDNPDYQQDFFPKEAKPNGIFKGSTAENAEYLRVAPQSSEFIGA
Test: Biochemical EGFR inhibition assay (Caliper mobility shift), EGFR (d746-750)
Settings: read-out: Enz EGFR_Exon19-del746-750 IC50

# annotated cases, reported IC50 shown
Inquiry: What value of IC50 has been recorded for this entry: CC(Oc1cc(-c2cnn(C)c2)cc2ncnc(Nc3ccc4ncccc4c3F)c12)C1(N(C)C)COC1 (stereo not shown)
Reply text: < 10 nM

Inquiry: And the next one, C[C@H](CN(C)C)Oc1cc(-c2cnn(C)c2)cc2c1c(Nc1ccc3ncccc3c1F)nc[n+]2[O-] (single isomer, unassigned) ?
Reply text: < 10 nM

Inquiry: Another compound to look at: CC(=O)N1C2CC1CN(c1cc(O[C@H](C)CN(C)C)c3c(Nc4ccc5ncccc5c4F)ncnc3c1)C2
Reply text: 10.1 to 50 nM

Inquiry: Check C[C@H](CN(C)C)Oc1cc(N2CCS(=O)(=O)CC2)cc2ncnc(Nc3ccc4ncccc4c3F)c12 too.
Reply text: > 50.1 nM

Inquiry: Quick one: C[C@@H](Oc1cc(-c2cnn(CCO)c2)cc2ncnc(Nc3ccc4ncccc4c3F)c12)C1COC1
Reply text: < 10 nM

---
Inquiry: Look up IC50: CC(CO)n1cc(-c2cc(O[C@H](C)C3COC3)c3c(Nc4ccc5ncccc5c4F)ncnc3c2)cn1 (mixture of isomers)
Reply text: < 10 nM

Inquiry: And for CCNC[C@@H](C)Oc1cc(-c2cnn(C)c2)cc2ncnc(Nc3ccc4ncccc4c3F)c12 ?
Reply text: 10.1 to 50 nM

====

Target: EGFR L858R (Homo sapiens, UniProt P00533, L858R)
Construct: purchased SignalChem E10-122BG
Sequence (P00533 25-1210 L858R): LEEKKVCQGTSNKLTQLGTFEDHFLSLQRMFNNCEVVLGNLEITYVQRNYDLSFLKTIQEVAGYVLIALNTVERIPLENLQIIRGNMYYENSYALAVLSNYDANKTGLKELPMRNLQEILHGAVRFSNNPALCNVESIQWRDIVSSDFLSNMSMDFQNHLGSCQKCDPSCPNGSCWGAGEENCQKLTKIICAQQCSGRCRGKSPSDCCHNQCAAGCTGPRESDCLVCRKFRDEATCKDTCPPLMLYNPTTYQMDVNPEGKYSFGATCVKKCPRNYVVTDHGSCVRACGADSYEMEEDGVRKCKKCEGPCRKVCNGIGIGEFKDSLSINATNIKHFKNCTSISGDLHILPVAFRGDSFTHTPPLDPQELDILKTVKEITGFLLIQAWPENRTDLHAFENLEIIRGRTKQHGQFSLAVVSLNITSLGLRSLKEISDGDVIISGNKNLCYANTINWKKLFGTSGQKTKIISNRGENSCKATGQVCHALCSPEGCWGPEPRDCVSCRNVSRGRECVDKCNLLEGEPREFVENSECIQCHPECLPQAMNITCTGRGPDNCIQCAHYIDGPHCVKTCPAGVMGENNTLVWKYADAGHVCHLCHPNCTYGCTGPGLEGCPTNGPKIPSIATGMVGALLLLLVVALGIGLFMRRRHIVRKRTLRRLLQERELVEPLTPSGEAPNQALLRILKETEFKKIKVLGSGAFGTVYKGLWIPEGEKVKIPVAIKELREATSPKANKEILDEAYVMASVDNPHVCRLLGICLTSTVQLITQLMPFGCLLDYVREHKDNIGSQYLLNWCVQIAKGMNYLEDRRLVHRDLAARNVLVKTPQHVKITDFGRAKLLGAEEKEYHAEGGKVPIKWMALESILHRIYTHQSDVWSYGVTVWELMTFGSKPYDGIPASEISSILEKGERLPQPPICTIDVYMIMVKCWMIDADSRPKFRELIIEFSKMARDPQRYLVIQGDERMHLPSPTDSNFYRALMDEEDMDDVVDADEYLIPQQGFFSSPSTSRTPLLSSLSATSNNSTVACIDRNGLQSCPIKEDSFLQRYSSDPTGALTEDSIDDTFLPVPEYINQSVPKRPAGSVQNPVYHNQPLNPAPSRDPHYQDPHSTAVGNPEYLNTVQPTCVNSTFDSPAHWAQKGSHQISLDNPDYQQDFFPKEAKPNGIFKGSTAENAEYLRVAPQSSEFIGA
Assay: Biochemical EGFR inhibition assay (Caliper mobility shift), EGFR L858R
Conditions: 1.0 mM ATP or ATP Km; room temperature (25° C.); read-out: Enz EGFR_L858R IC50
pIC50: −log10 of the molar value.
Measurement name: pIC50

Worked cases, answers included:
Inquiry: Need pIC50 of C[C@H](Oc1cc(-c2cnn(C)c2)cc2ncnc(Nc3ccc4ncccc4c3F)c12)[C@@H]1CCCN1C (single isomer, unassigned) [Example 148] , thanks.
Reply text: 7.30 to 8.00

Inquiry: Please answer likewise for C[C@@H](CN(C)C)Oc1cc(N2CC3CC(C2)O3)cc2ncnc(Nc3ccc4ncccc4c3)c12 (single isomer, unassigned)
Reply text: 7.30 to 8.00

Inquiry: Same lookup for C[C@H](Oc1cc(-c2cnn(C)c2)cc2ncnc(Nc3ccc4ncccc4c3F)c12)[C@@H]1CCCN1C (single isomer, unassigned) [Example 146] , please.
Reply text: > 8.00

Inquiry: Consider next the molecule C[C@@H](CN(C)C)Oc1cc(-c2cnn(C)c2)cc2ncnc(Nc3ccc4ncccc4c3)c12 (single isomer, unassigned) in the same way.
Reply text: > 8.00

Inquiry: Continue with C[C@H](CN(C)C)Oc1cc(-c2cnn(C)c2)cc2ncnc(Nc3ccc4ncccc4c3F)c12 (single isomer, unassigned)
Reply text: > 8.00

Inquiry: Then what about the molecule C[C@H](O)[C@H](C)Oc1cc(-c2cnn(C)c2)cc2ncnc(Nc3ccc4ncccc4c3F)c12 (single isomer, unassigned) ?
Reply text: > 8.00

Inquiry: Field entry: C[C@H](Oc1cc(-c2cnn(C)c2)cc2ncnc(Nc3ccc4ncccc4c3F)c12)[C@@H]1CCCN1C (single isomer, unassigned) [Example 145]
Reply text: 7.30 to 8.00

Inquiry: Do the same for CN(C)C[C@@H](Oc1cc(-c2cnn(C)c2)cc2ncnc(Nc3ccc4ncccc4c3F)c12)C(F)F (single isomer, unassigned) please
Reply text: 7.30 to 8.00

Inquiry: Would you mind doing CO[C@@H]1CCN(c2cc(O[C@H](C)C3COC3)c3c(Nc4ccc5ncccc5c4F)ncnc3c2)C1 (single isomer, unassigned) [Example 85a] as well?
Reply text: > 8.00

Inquiry: Also check CO[C@@H]1CCN(c2cc(O[C@H](C)CN(C)C)c3c(Nc4ccc5ncccc5c4F)ncnc3c2)C1 (single isomer, unassigned) [Example 87a]
Reply text: > 8.00

More entries:
Inquiry: Which value of pIC50 has been reported for Cn1cc(-c2cc(O[C@@H]3CC[C@@H]3O)c3c(Nc4ccc5ncccc5c4F)ncnc3c2)cn1 (single isomer, unassigned) in the records?
Reply text: > 8.00

Inquiry: Okay, and C[C@@H](CN(C)C)Oc1cc(-c2cnn(C)c2)cc2ncnc(Nc3ccc4ncccc4c3F)c12 (single isomer, unassigned) ?
Reply text: 7.30 to 8.00

Inquiry: Try this molecule next: C[C@H](Oc1cc(-c2cnn(C)c2)cc2ncnc(Nc3ccc4ncccc4c3F)c12)C1CCOCC1
Reply text: > 8.00

Inquiry: Also need C[C@H](Oc1cc(-c2cnn(C)c2)cc2ncnc(Nc3ccc4ncccc4c3F)c12)C(=O)N1CCOCC1 (single isomer, unassigned) , thanks.
Reply text: > 8.00

Inquiry: Now this one: C[C@H](Oc1cc(-c2cnn(C)c2)cc2ncnc(Nc3ccc4ncccc4c3F)c12)C(=O)N(C)C (single isomer, unassigned)
Reply text: > 8.00
